The following molecules are shown together with reported IC50 values.
Biological target: Prostaglandin E synthase (Homo sapiens, UniProt O14684)
Sequence (O14684 whole entry): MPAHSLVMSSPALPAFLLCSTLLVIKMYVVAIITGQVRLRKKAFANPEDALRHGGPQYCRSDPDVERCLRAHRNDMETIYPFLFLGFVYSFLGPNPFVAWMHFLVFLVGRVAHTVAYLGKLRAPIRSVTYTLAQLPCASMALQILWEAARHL
Assay: Inhibition of recombinant human mPGES-1 expressed in CHO cells assessed as reduction in PGE2 formation using PGH2 a substrate preincubated for 10 mins followed by substrate addition measured after 1 min
Type: cell-based
Output spec: scalar in nM, unitless text.

See these solved cases before continuing.
- CC1(C)Oc2cc(Cl)ccc2-c2[nH]c(-c3c(Br)cccc3Br)nc21: 325
- CC1(C)Oc2cc(C#Cc3cc(Cl)ccc3Cl)ccc2-c2nc(-c3c(C#N)cccc3C#N)[nH]c21: 12.7
- CC1(C)Oc2cc(C#Cc3cc(C(F)(F)F)ccc3Cl)ccc2-c2nc(-c3c(Cl)cncc3Cl)[nH]c21: 33.1

Please examine the following record next.
State measured IC50 of the molecule "CC1(C)Oc2cc(Br)ccc2-c2[nH]c(-c3c(Br)cccc3Br)nc21" with Prostaglandin E synthase (Homo sapiens, UniProt O14684).
710
